The values you see were collected from paper PMC9159852.

Test system: human muscle rhabdomyosarcoma (RD) cell line
Assay: Antiproliferative activity (MTS and Resazurin assays), RD
Type: cell-based
Settings: IC50(MDCK)/IC50(RD)
Overview of recorded SI (selectivity index) for various compounds
// return a plain number; no unit text

Known SI (selectivity index) results, listed for orientation:
compound: C=CCNC(=NN=Cc1ccccn1)[S][Cu][Br] [compound 3, [Cu(L)Br]]
SI (selectivity index): 31
//
compound: COc1cccc2c1C(=O)c1c(O)c3c(c(O)c1C2=O)C[C@@](O)(C(=O)CO)C[C@@H]3O[C@H]1C[C@H](N)[C@H](O)[C@H](C)O1 [Doxorubicin, doxorubicin, reference compound]
SI (selectivity index): 0.44
//
compound: C=CCNC(=NN=Cc1ccccn1)[S][Cu][Cl] [compound 2, [Cu(L)Cl]]
SI (selectivity index): 23

## Input Give SI (selectivity index) (human muscle rhabdomyosarcoma (RD) cell line) of the following compound: C=CCNC(=NN=Cc1ccccn1)[S][Cu][O]C(C)=O.C=CCNC(=NN=Cc1ccccn1)[S][Cu][O]C(C)=O.O.O.O.O [compound 4, [Cu2(L)2(CH3COO)2]·4H2O]
## Output 40
